target: Aromatase (Homo sapiens)
Sequence (P11511 whole entry): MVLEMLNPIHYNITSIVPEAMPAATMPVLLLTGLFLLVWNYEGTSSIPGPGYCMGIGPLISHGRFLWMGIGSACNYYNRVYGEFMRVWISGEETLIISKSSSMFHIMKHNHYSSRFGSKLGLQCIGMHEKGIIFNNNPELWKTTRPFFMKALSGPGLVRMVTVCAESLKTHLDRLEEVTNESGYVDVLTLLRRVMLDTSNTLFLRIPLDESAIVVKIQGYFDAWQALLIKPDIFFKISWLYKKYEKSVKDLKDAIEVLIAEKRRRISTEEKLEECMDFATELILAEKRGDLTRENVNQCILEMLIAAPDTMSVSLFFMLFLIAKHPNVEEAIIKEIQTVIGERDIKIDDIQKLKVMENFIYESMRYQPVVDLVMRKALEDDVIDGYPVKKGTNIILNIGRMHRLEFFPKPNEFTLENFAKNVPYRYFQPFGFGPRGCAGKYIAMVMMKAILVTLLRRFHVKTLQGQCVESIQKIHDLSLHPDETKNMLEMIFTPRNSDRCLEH
pIC50: −log10 of the molar value.
# thresholds on pIC50 define classes: interval 1 = under 5, interval 2 = from 5 up to 6, interval 3 = 6 and over

> print(dat)
                                    molecule             tested.system  group.label
 1  C[C@]12CC[C@@H]3c4cc(Br)c(O)cc4CC[C@H]3[C@@H]1CCC2=O  Aromatase (Homo sapiens)   interval 2
 2  C=C[C@@H]1C[C@@H]2[C@H](CC[C@]3(C)C(=O)CC[C@@H]23)[C@@]2(C)CCC(=O)C=C12  Aromatase (Homo sapiens)   interval 3
 3  CCCC1=C[C@@H]2[C@H](CC[C@]3(C)C(=O)CC[C@@H]23)[C@@]2(C)C=CC(=O)C=C12  Aromatase (Homo sapiens)   interval 3
 4  CCC[C@]12CCC(=O)C=C1CC[C@@H]1[C@@H]2CC[C@]2(C)C(=O)CC[C@@H]12  Aromatase (Homo sapiens)   interval 1
 5  COC1=C2C(=O)C[C@@H]3[C@H](CC[C@]4(C)C(=O)CC[C@@H]34)[C@@]2(C)CCC1=O  Aromatase (Homo sapiens)   interval 2
 6  CC(=O)OC1CC[C@H]2[C@@H]3CCC4=CCCC[C@]4(CO)[C@H]3CC[C@]12C (stereo partly specified)  Aromatase (Homo sapiens)   interval 1
 7  CCCCCCC1=C[C@@]2(C)C(=CC1=O)CC[C@@H]1[C@@H]2CC[C@]2(C)C(=O)CC[C@@H]12  Aromatase (Homo sapiens)   interval 3
 8  C[C@]12CC[C@H]3[C@@H](C=CC4=CC(=O)CC[C@@]43CI)[C@@H]1CCC2=O  Aromatase (Homo sapiens)   interval 2
 9  CCCC1=C[C@@H]2[C@H](CC[C@]3(C)C(=O)CC[C@@H]23)[C@@]2(C)CCC(=O)C=C12  Aromatase (Homo sapiens)   interval 3
10  C[C@]12CCC=CC1=CC(=O)[C@@H]1[C@@H]2CC[C@]2(C)C(=O)CC[C@@H]12  Aromatase (Homo sapiens)   interval 2
11  C[C@]12CCC(=O)C=C1[C@@H](CCc1ccccc1)C[C@@H]1[C@@H]2CC[C@]2(C)C(=O)CC[C@@H]12  Aromatase (Homo sapiens)   interval 1
12  CCC1=C[C@@H]2[C@H](CC[C@]3(C)C(=O)CC[C@@H]23)[C@@]2(C)C=CC(=O)C=C12  Aromatase (Homo sapiens)   interval 3
13  C[C@]12C=CC(=O)C=C1C[C@@H](CCc1cccc([N+](=O)[O-])c1)[C@@H]1[C@@H]2CC[C@]2(C)C(=O)CC[C@@H]12  Aromatase (Homo sapiens)   interval 3
14  CC[C@]12CCC(=O)C=C1C=C[C@@H]1[C@@H]2CC[C@]2(C)C(=O)CC[C@@H]12  Aromatase (Homo sapiens)   interval 3
15  C[C@]12CC[C@H]3[C@@H](CC=C4CCCC[C@@]43CO)[C@@H]1CCC2O (stereo partly specified)  Aromatase (Homo sapiens)   interval 1
16  C[C@]12CCC=CC1=CC[C@@H]1[C@@H]2CC[C@]2(C)C(=O)CC[C@@H]12  Aromatase (Homo sapiens)   interval 3
